targetDesc: Gamma-aminobutyric acid receptor subunit alpha-2 (Homo sapiens)
protocolNotes: Agonist activity at recombinant GABAA receptor subunit alpha-2 expressed in CHO cells at 3 uM by sensitive fluorometric read-out assay relative to midazolam
Type: functional, cell-based
quantityKind: Efficacy (%)

Solved cases (6 shown):
> print(dat)
                                 itemsmiles                                targetdesc  quantitykind  result
1  Clc1ccc(COc2c3cnc4c(c3nn2-c2ccc(Cl)cc2)CCCC4)cc1  Gamma-aminobutyric acid receptor subunit alpha-2 (Homo sapiens)      Efficacy      42
2  Clc1ccc(-n2nc3c4c(ncc3c2OCC2CC2)CCCC4)cc1  Gamma-aminobutyric acid receptor subunit alpha-2 (Homo sapiens)      Efficacy      64
3  Fc1ccccc1COc1c2cnc3c(c2nn1-c1ccc(Cl)cc1)CCCC3  Gamma-aminobutyric acid receptor subunit alpha-2 (Homo sapiens)      Efficacy      83
4  Fc1ccc(COc2c3cnc4c(c3nn2-c2ccc(Cl)cc2)CCCC4)cc1  Gamma-aminobutyric acid receptor subunit alpha-2 (Homo sapiens)      Efficacy      41
5  CC1(C)CCc2ncc3c(OCc4ccccc4Cl)n(-c4ccc(Cl)cc4)nc3c2C1  Gamma-aminobutyric acid receptor subunit alpha-2 (Homo sapiens)      Efficacy      23
6  Clc1ccc(-n2nc3c4c(ncc3c2OCc2ccccc2Cl)CCCCC4)cc1  Gamma-aminobutyric acid receptor subunit alpha-2 (Homo sapiens)      Efficacy      96

(A) Clc1ccc(-n2nc3c(cnc4ccccc43)c2OCc2ccccc2Cl)cc1
(B) FC(F)(F)c1ccccc1COc1c2cnc3c(c2nn1-c1ccc(Cl)cc1)CCCC3
Q. Pick one, A or B : lowest reported Efficacy. Field: selected label. Fill in the label of the entry you choose.
A. A
